These entries and their values trace back to PubChem BioAssay (NCATS).

Some compounds, each annotated with its measured activation.
target: Glucocorticoid receptor (Homo sapiens) (UniProt P04150); assay: qHTS assay for small molecule agonists of glucocorticoid receptor signaling (AID 588532); settings: HeLa MMTV-bla, beta-lactamase ratio, agonist, 18 h; stronger effect = higher value; percent of dexamethasone control, DMSO zero;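 further: 100% = dexamethasone at 0.1 µM and 0% = DMSO only wells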
Sequence (P04150 whole entry, looked up): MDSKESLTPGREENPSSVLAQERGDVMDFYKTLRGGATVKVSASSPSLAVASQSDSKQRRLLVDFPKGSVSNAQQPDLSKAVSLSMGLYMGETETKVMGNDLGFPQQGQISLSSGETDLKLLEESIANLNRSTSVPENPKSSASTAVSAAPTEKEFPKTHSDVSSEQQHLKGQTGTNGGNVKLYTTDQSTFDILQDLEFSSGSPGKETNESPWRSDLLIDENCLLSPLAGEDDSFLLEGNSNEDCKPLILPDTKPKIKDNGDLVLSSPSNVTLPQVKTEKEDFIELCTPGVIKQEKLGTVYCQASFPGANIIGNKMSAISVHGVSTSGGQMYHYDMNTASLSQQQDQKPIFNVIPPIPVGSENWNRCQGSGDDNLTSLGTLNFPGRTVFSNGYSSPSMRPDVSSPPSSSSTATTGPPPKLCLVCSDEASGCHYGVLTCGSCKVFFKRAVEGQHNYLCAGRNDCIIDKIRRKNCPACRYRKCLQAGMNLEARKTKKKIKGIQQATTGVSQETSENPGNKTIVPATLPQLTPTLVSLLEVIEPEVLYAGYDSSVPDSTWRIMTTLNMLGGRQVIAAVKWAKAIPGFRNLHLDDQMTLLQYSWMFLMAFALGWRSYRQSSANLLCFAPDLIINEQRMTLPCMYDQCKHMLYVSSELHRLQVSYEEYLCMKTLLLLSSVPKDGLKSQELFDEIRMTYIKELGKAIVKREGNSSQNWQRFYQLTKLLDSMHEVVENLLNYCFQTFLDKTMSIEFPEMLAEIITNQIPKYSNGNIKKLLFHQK
Inconclusive results are not listed. Activity calls are given as the source filed them. The call rests on the fitted dose curve; in most records, active means well fitted curve in the direction sought with a large enough effect in the signal ratio, with a control signal flat; inconclusive means small, poorly fitted or top-dose-only effect, or a change in a side signal; inactive means no such curve, though single readings can be large or run the other way; the % refers to the signal ratio.

| compound | activation |
| --- | --- |
| O=C(Cc1ccccc1)OCc1ccccc1 | 0.186% (inactive) |
| CCC(Cl)[N+](=O)[O-] (stereo not drawn) | -1.58% (inactive) |
| Cc1cc(-c2cc(C)c(N)c(C)c2)cc(C)c1N | -0.885% (inactive) |
| C=CC(=O)OCC(C)C | -2.2% (inactive) |
| Cc1ccc(N)c(N)c1 | 0.413% (inactive) |
| COc1ccc(C=O)cc1 | -0.198% (inactive) |
| Oc1cc(Cl)c(Cl)c(Cl)c1 | 5.15% (inactive) |
| O=[N+]([O-])/C=C/c1ccccc1 | -1.34% (inactive) |

###

experiment: qHTS assay for small molecule disruptors of the mitochondrial membrane potential - 5 hr assay (AID 651755); conditions: JC-1-type ratio dye; series mostly up to 92.2 µM; further: nearly all actives have a fitted effect of over 40% in size
Records with an inconclusive call do not appear. The source made the active and inactive calls. Calls come from the whole dose curve.
Classes used: active, inactive

| compound | label |
| --- | --- |
| CC(=O)[O-].CC(=O)[O-].CC(=O)[O-].[Cr+3] | inactive |
| Nc1cc(Cl)ccc1O | active |
| O=[N+]([O-])c1ccccc1-c1ccccc1 | inactive |
| CC(C)CC(C)N (stereo not given) | inactive |
| CN=C=O | inactive |
| Clc1cccc(Cl)c1 | inactive |
| CC(=O)NNc1ccccc1 | inactive |
| NNC(N)=S | inactive |
| CC(=O)CCC(C)=O | inactive |
| Nc1cc(Cl)cc(Cl)c1 | inactive |
| Oc1cccc(Cl)c1 | inactive |
| CN1CSC(=S)N(C)C1 | inactive |
| Nc1ccc([N+](=O)[O-])cc1N | inactive |
| CCCBr | inactive |
| Nc1cccc(Cl)c1 | inactive |
| OCCBr | inactive |
| O=C(O)C(Cl)Br (stereo not given) | inactive |
| CN(C)c1ccc(N(C)C)cc1 | inactive |
| CC(C)OC(=O)Cc1ccccc1 | inactive |
| Cc1ccc(N)c(C)c1 | inactive |
| CCCN(CCC)c1c([N+](=O)[O-])cc(C(F)(F)F)cc1[N+](=O)[O-] | inactive |
| Cc1cccc(C)c1N | inactive |
| CCOP(=O)(OCC)OCC | inactive |
| Cc1ccc([N+](=O)[O-])cc1 | inactive |
| Cc1ccc(N)cc1Cl | inactive |
| C=CC(=O)OCCO | inactive |
| O=[N+]([O-])c1ccc(O)c([N+](=O)[O-])c1 | active |
| OCC(Cl)CCl (stereo not given) | inactive |
| ClCC(Cl)Cl | inactive |
| C=CCCl | inactive |
| Nc1ccc(Cl)c(Cl)c1 | inactive |
| Nc1cccc2ccccc12 | inactive |
| CCOP(=S)(OCC)SCCSCC | inactive |
| Cc1ccc(OP(=O)(Oc2ccc(C)cc2)Oc2ccc(C)cc2)cc1 | active |
| O=[N+]([O-])c1ccc(Cl)c(Cl)c1Cl | inactive |

###

experiment: NFAT Signaling Pathway (AID 444); conditions: Jurkat NFAT-bla M1, carbachol, beta-lactamase ratio, 5 h; at 7.69 µM (top of the series) unless noted;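 further: carbachol stimulus at about its EC50 of 1 µM final; on the % scale 0 is the no-effect control and ±100 the full control effect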
Inconclusive results are not listed. Calls of active or inactive are those of the source. Calls follow the shape of the dose curve; as a rule, active = well fitted curve in either direction with a large enough effect (not every such curve was filed as active); inconclusive = small, poorly fitted or top-dose-only effect, or another doubt; inactive = flat fitted curve, though single readings scatter.
measured metric: activity change, negative = inhibition

| molecule | reported measurement |
| --- | --- |
| Cc1ncc([N+](=O)[O-])n1CCN=[N+]=[N-] | 5.75% (inactive) |
| O=C(O)Cc1ccc([N+](=O)[O-])cc1[N+](=O)[O-] | -1.68% (inactive) |
| O=C(O)C[C@H]1OCC=C2CN3CC[C@]45c6ccccc6N[C@@H]4[C@H]1[C@H]2C[C@H]35 | -1.05% (inactive) |
| C[C@@]12CC[C@H]3[C@H](CCC4=CC(=O)CC[C@H]43)[C@H]1CC[C@H]2OC1(O)C(=O)c2ccccc2C1=O | -18.3% (inactive) |
| CN1C[C@@H](CS(=O)(=O)N(C)C)C[C@H]2c3cccc4c3c(cn4C)C[C@@H]21 | 4.13% [at 38 µM] (inactive) |
| CS(=N)(=O)CC[C@H](N)P(=O)(O)O (stereo not given in full) | -0.082% (inactive) |
| C[C@@H]1[C@H]2C=C[C@@H]1[C@@H](c1c3ccc(=O)c(O)c-3oc3c(O)c(O)ccc13)[C@@H]2C(=O)O | 3.07% (inactive) |
| CCC1=C(C[C@H]2NCCc3cc(OC)c(OC)cc32)C[C@H]2c3ccccc3CCN2C1 | -19.1% (inactive) |
| O=C(O)[C@H]1[O][Sb][O][C@@H](C(=O)O)C1O (stereo not given in full) | 8.28% (inactive) |
| NS(=O)(=O)c1ccc(-c2ccc([As](=O)(O)O)cc2)cc1 | 17.3% (inactive) |
| COc1ccc2c(c1O)-c1cccc3c1[C@H](C2)N(C)CC3 | -9.88% [at 38 µM] (inactive) |
| C[C@@H](O)CN(CCN(C[C@@H](C)O)C[C@@H](C)O)C[C@@H](C)O.O=[N+]([O-])O.[Cu] | -2.32% (inactive) |
| Nc1nc(N)c(Cn2ccnc2)c(=O)[nH]1 | 17.6% (inactive) |
| C[C@@]12CC[C@H]3[C@@H](CC[C@@H]4C[C@H](O)CC[C@]43C)[C@H]1CC[C@H]2O | 6.96% [at 38 µM] (inactive) |
| NC(=O)CN1C[C@@H](O)CC1=O | 17.8% [at 38 µM] (inactive) |
| CN(C)[C@@H]1C(=O)C(C(N)=O)=C(O)[C@]2(O)C(=O)C3=C(O)c4c(O)cccc4[C@](C)(O)[C@H]3C[C@@H]12 | 15.2% (inactive) |
| O=C(O)C(Oc1nc(=S)[nH]c(=S)[nH]1)(c1ccc(Cl)cc1)c1ccc(Cl)cc1 | 0.65% (inactive) |
| NNc1c(C(N)=O)c2c(N)ncnc2n1[C@@H]1O[C@H](CO)[C@@H](O)[C@@H]1O | 6.43% (inactive) |
| CCNC(C)(C)[C@@H](SS)c1ccc(Br)cc1 | 11.8% (inactive) |
| CSCC[C@@H](N)P(C)(=O)O | 2.01% (inactive) |

###

test system: 7G8; test: qHTS profiling for inhibitors of Plasmodium falciparum proliferation (AID 504749); further: nearly all actives have a fitted effect of over 60% in size; conditions: P. falciparum in erythrocytes, SYBR Green DNA, 72 h; series mostly up to 28.7 µM
Results filed as inconclusive are left out. Activity calls are given as the source filed them. The call rests on the fitted dose curve; in most records, active means well fitted inhibition curve with a large enough effect; inconclusive means small, poorly fitted or top-dose-only effect; inactive means flat fitted curve, though single readings scatter.
Classes used: active, inactive

| compound | label |
| --- | --- |
| C[C@@H](Cc1ccc(O)cc1)NC[C@@H](O)c1cc(O)cc(O)c1 | inactive |
| C=C[C@@H]1CN2CC[C@H]1C[C@H]2[C@H](O)c1ccnc2ccccc12 | active |
| C[N+]1([O-])[C@H]2CC[C@H]1CC(OC(=O)[C@@H](CO)c1ccccc1)C2 (some centres undefined) | inactive |
| C[N+]1(C)C2CC[C@H]1CC(OC(=O)[C@@H](CO)c1ccccc1)C2 (some centres undefined) | inactive |

###

Test: qHTS assay for small molecule disruptors of the mitochondrial membrane potential - 1 hr assay (AID 651754); further: nearly all actives have a fitted effect of over 35% in size
Conditions: series mostly up to 92.2 µM
Text: National Center for Advancing Translational Sciences [NCATS] NIH Chemical Genomics Center [NCGC] National Institutes of Environmental Health Sciences [NIEHS] National Toxicology Program [NTP] Mitochondrial membrane potential (MMP), one of the parameters for mitochondrial function, is generated by mitochondrial electron transport chain that creates an electrochemical gradient by a series of redox reactions. […] The dye accumulates in the mitochondria of healthy cells as aggregates, with red fluorescence. […]
Results filed as inconclusive are left out. Calls of active or inactive are those of the source. Calls follow the shape of the full dose curve.
Classes used: active, inactive

| compound | label |
| --- | --- |
| Nc1ccc(Cc2ccc(N)c(Cl)c2)cc1Cl | inactive |
| O=C(Cl)c1ccccc1F | inactive |
| O=[N+]([O-])c1ccc2c3c(cccc13)CC2 | active |
| [O-][Cl+]O | inactive |
| CNC(=O)O/N=C/C(C)(C)S(C)=O (stereo not drawn) | inactive |
| O=C(O)c1cc(Cl)ccc1Cl | inactive |
| Nn1cnnc1 | inactive |
| ClCCOCCCl | inactive |
| C=CCc1cc(OC)c2c(c1)OCO2 | inactive |
| Nc1cc(Cl)cc(Cl)c1 | inactive |
| CC(C)(OOC(C)(C)c1ccccc1)c1ccccc1 | inactive |
| C=CC(=O)OCCO | inactive |
| c1ccc(NNc2ccccc2)cc1 | inactive |
| O=C(O)CBr | inactive |
| ClCCBr | inactive |
| ClC=CCl | inactive |
| CC(C)Br | inactive |
| OCC(Cl)CCl (stereo not drawn) | inactive |
| N#C/C(N)=C(/N)C#N | inactive |
| Nc1cccc(Cl)c1 | inactive |
| COC(=O)Nc1nc2ccccc2[nH]1 | inactive |
| O=[N+]([O-])c1ccccc1-c1ccccc1 | inactive |
| CCCCOCC1CO1 (stereo not drawn) | inactive |
| C=CC(=O)OC | inactive |
| CCCCC(=O)Cl | inactive |
| N#C/C=C/C#N | inactive |
| C=CC#N | inactive |
| O=[N+]([O-])c1ccc(Cl)cc1 | inactive |
| CCOP(=O)(OCC)OCC | inactive |
| CC(C)(C)C(O)(CCc1ccc(Cl)cc1)Cn1cncn1 (stereo not drawn) | inactive |
| Nc1cccc2ccccc12 | inactive |
| ClC(Cl)C(Cl)Cl | inactive |
| CCOP(=S)(OCC)SCCSCC | inactive |
| COC(C)(C)C | inactive |
| O=C(O)C(Br)CBr (stereo not drawn) | inactive |
| Cc1ccc2c(c1N)C(=O)c1ccccc1C2=O | active |
| ClCC(Cl)Cl | inactive |
| Clc1cc(Cl)c(Cl)c(Cl)c1 | inactive |
